kon values for the binders below.
# assay-system: T1, Cynomolgus monkey Serum Albumin (Cynomolgus monkey, UniProt A2V9Z4 25-608)
# T1 construct: mature; purified protein on CM5 chips for BIAcore; also called CSA; cyno SA
# T1 sequence (A2V9Z4 25-608): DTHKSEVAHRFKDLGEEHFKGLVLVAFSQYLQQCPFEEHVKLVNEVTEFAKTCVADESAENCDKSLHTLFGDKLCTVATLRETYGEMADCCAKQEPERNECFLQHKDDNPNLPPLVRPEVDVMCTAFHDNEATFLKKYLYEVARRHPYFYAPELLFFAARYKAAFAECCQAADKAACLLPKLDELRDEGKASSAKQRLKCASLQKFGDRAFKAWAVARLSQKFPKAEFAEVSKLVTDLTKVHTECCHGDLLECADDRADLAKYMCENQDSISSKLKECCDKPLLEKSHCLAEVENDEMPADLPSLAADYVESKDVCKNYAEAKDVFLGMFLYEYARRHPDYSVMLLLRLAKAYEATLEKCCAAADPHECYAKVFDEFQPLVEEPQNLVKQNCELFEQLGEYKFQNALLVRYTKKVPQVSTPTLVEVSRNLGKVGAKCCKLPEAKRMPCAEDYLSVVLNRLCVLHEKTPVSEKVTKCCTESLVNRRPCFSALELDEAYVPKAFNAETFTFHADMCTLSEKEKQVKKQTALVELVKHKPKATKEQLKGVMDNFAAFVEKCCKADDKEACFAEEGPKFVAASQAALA
# experiment-description: BIAcore SPR;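 note: purified dAbs run at 1 µM, 500 nM and 50 nM over human, cynomolgus, mouse and rat serum albumin in BIAcore binding measurements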
Quick reminder: number only, in M⁻¹ s⁻¹, skip the unit.

DOM7h-11-18 (other) VL: DIQMTQSPSSLSASVGDRVTITCRASRPIGTMLSWYQQKPGKAPKLLIWFGSRLQSGVPSRFSGSGSGTDFTLTISSLQPEDFATYHCAQAGTHPTTFGQGTKVEIKR = 225000
DOM7h-11-3 (other) VL: DIQMTQSPSSLSASVGDRVTITCRASRPIGTTLSWYQQKPGKAPKLLILWNSRLQSGVPSRFSGSGSGTDFTLTISSLQPEDFATYYCAQAGTHPTTFGQGTKVEIKR = 290000
DOM7h-14-18 (other, Vk dAb (AlbudAb)) VL: DIQMTQSPSSLSASVGDRVTITCRASQWIGSQLSWYQQKPGKAPKLLIMWRSSLQSGVPSRFSGSGSGTDFTLTISSLQPEDFATYYCAQGLMKPMTFGQGTKVEIKR = 630000

Next up:
# input binder: DOM7h-14-19 (other, Vk dAb (AlbudAb)) VL: DIQMTQSPSSLSASVGDRVTISCRASQWIGSQLSWYQQKPGEAPKLLIMWRSSLQSGVPSRFSGSGSGTDFTLTISSLQPEDFATYYCAQGAALPRTFGQGTKVEIKR ; wanted: its kon
700000
